- TEST SUMMARY: NOD1 signaling inhibitors, primary screen, cell-based, luminescence, uHTS (AID 1578);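 further: HEK-293T reporter cells stimulated with the NOD1 agonist gamma-tri-DAP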
- SETTINGS: NOD1-driven NF-kB luciferase reporter cells, at 4 µM
The campaign covered roughly 290,000 compounds. About 3,000 (1%) were called active. No stated cut-off is given here; in the data, active means inhibition mostly above about 36% (no sharp cut-off); inactive means mostly below about 34%. What follows is part of a selection rich in actives, with near analogues and random picks from the rest.
Allowed answers: 1 (yes) = active, 0 (no) = inactive

In: Assay result, entry CN1C=CC(=C2C(=O)c3ccccc3C2=O)C=C1 — outcome?
Out: 0 (no)

In: Test call for this compound, please: COc1ccc(C(=O)C2CCCN(Cc3cc(Cl)ccc3O)C2)c(OC)c1 (stereo not given)
Out: 0 (no)

In: Recorded test call requested for CCN(CC)C(=O)c1ccc(-c2nnc(Nc3ccc(O)cc3)c3ccccc23)cc1
Out: 0 (no)

In: Which outcome was assigned to CCOC(=O)c1c(C)sc2c1N(C(C)=O)c1cc(Cl)ccc1S2 in this test?
Out: 0 (no)

In: Lab log entry: O=C(NNC(=O)c1ccccc1OCc1ccccc1Cl)c1csc(N2CCOCC2)n1 — outcome as called in the assay?
Out: 1 (yes)

In: Record request — test call for O=C(NNC(=O)c1cc(Br)ccc1Cl)c1csc(N2CCOCC2)n1
Out: 0 (no)

In: For COCCCNC(=O)Cn1c(=O)n(Cc2ccc(F)cc2)c(=O)c2sccc21 , which call appears in the assay record?
Out: 0 (no)

In: Per the assay record, what outcome was assigned to CN(C)C1(CN=Cc2cc(Cl)cc([N+](=O)[O-])c2O)CCCCC1 ?
Out: 0 (no)

In: I'd appreciate the recorded outcome for Nc1nn(-c2ccccc2)c(N)c1N=Nc1ccc2c(c1)OCO2 from this test.
Out: 0 (no)

In: Look up the recorded call for CC(=O)n1cc(CO)c2ccccc21 in this test.
Out: 0 (no)

In: Short answer needed: outcome of this test for Cc1c(-c2ccccc2)sc2nc[nH]c(=S)c12 ?
Out: 0 (no)

In: // param item: CCc1ccc(NC(=O)C(=O)NCCN2CCN(Cc3ccc([N+](=O)[O-])cc3)CC2)cc1 ; yields the recorded call
Out: 0 (no)

In: Record lookup: outcome of this test for COc1ccc(C(=O)/C=C/C(=O)N(CC(=O)NC2CCCCC2)Cc2cccs2)c(O)c1 ?
Out: 0 (no)

In: Fill in: this test's call for COCC(=O)OCn1nnc2ccccc2c1=O is ___
Out: 0 (no)

In: What did the test return for CC(=O)N(c1ccc(Cl)cc1)c1cn(C(C)=O)c2ccccc12 ?
Out: 0 (no)

In: Test call for this compound, please: COc1ccc(NC(=O)CNC(=O)c2c(C)nn(C)c2Cl)cc1
Out: 0 (no)

In: # outcome recorded in this test, key = CCOc1cc(Br)cc(C(c2c(C(=O)O)[nH]c3ccccc23)c2c(C(=O)O)[nH]c3ccccc23)c1O
Out: 0 (no)

In: Status in this test for CC1=CC(=C2C(=O)c3ccccc3C2=O)C=C(C)N1C ?
Out: 0 (no)

In: Hi, sorry to bother you, what did the test record for CCCCN1C(C)=CC(=C2C(=O)c3ccccc3C2=O)C=C1C ?
Out: 0 (no)

In: Call for entry CCCN1C=CC(=C2C(=O)c3ccccc3C2=O)C=C1 :
Out: 0 (no)

In: Please share the test call associated with CCCCc1ccc(NC(=O)C(=O)NCCN2CCN(Cc3ccc([N+](=O)[O-])cc3)CC2)cc1 .
Out: 1 (yes)

In: Entry Cc1sc2nc[nH]c(=S)c2c1-c1ccccc1 : call = ?
Out: 1 (yes)

In: Could you please tell me the result logged for CCN(CC)C(=O)c1ccc(-c2nnc(Nc3ccc(C(=O)N(C)C)cc3)c3ccccc23)cc1 in this assay?
Out: 0 (no)

In: What classification did CCCCCN1C=CC(=C2C(=O)c3ccccc3C2=O)C=C1 end up with in this test?
Out: 1 (yes)

In: Would you mind telling me which call this test gave Cc1cc(Cl)cc(C)c1OCCNCc1ccccc1 ?
Out: 0 (no)

In: Check the results log: what was the call for CN(C(=O)COc1ccccc1C(=O)NCCc1ccccc1)c1ccccc1 ?
Out: 0 (no)

In: Please state the recorded outcome for this compound: Cc1ccc2nc(SCc3ccccc3)c(C=O)c(=O)n2c1
Out: 0 (no)

In: // outcome(item) with item = COc1ccc(C(=O)C2CCCN(Cc3ccc4nonc4c3)C2)c(OC)c1 (stereo not given)
Out: 0 (no)

In: Dear colleague, could you share the recorded outcome for COc1ccc(/C=N/NC(=O)c2cccnc2)cc1O when you have a moment?
Out: 0 (no)

In: GET /call?item= CC(=O)N1c2ccccc2C2(C)C(C1(C)C)C2(Cl)Cl (stereo not given) returns the recorded outcome of this test.
Out: 1 (yes)

In: Recorded test call requested for CC(C)CNS(=O)(=O)c1ccc(CCC(=O)Nc2cc(Cl)ccc2Oc2ccccc2)cc1
Out: 0 (no)

In: Can you look up the reported call for CC1=CC(=C2C(=O)c3ccccc3C2=O)C=C(C)O1 for me?
Out: 0 (no)

In: For CC(C)C(NC(=O)C(C)N1C(=O)c2ccccc2C1=O)c1ccccc1 (stereo not given) , what call appears in the results of this test?
Out: 0 (no)

In: Query: recorded result category for COc1cc(C2c3[nH]c4ccccc4c3C[C@@H]3C(=O)N(Cc4ccco4)CC(=O)N23)cc(OC)c1OC (stereo not given in full) in this test
Out: 0 (no)

In: Could you check what this test reported for CCOc1ccc(C(=O)Nc2cccc3ncccc23)cc1Cl ?
Out: 0 (no)

In: Dear colleague, could you share the recorded outcome for CCCCc1nc(NCCO)c(C#N)c2c1CCCC2 when you have a moment?
Out: 0 (no)

In: How did this test come out for CCNS(=O)(=O)c1ccc(CCC(=O)Nc2cc(Cl)ccc2Oc2ccccc2)cc1 ?
Out: 0 (no)

In: Hello, I am checking results. What call was entered for CCN(CC)C(=O)c1ccc(Nc2nnc(-c3ccc(O)cc3)c3ccccc23)cc1 ?
Out: 1 (yes)

In: Hi, sorry to bother you, what did the test record for CC(=O)N1c2ccccc2C(C)(c2ccccc2)CC1(C)C (stereo not given) ?
Out: 0 (no)

In: Fill in: this test's call for Cc1cc(C)n2nc(N)c(N=Nc3ccc4c(c3)OCO4)c2n1 is ___
Out: 0 (no)

In: Test call, this compound: CC1(C)C2C(Cl)(Cl)C2(C)c2ccccc2N1C=O (stereo not given)
Out: 0 (no)

In: Look up the recorded call for CCOc1cc(/C=C2/C(=O)ON=C2C)cc(Br)c1O in this test.
Out: 0 (no)

In: Fill in: this test's call for CCCCN1C=CC(=C2N=c3cccc([N+](=O)[O-])c3=N2)C=C1 is ___
Out: 0 (no)

In: In this assay, the call recorded for COc1cc([N+](=O)[O-])ccc1NC(=S)NNC(=O)c1ccc2c(c1)OCO2 was what?
Out: 0 (no)

In: What classification did CCCCCCCN1C=CC(=O)CC1 end up with in this test?
Out: 0 (no)
